Tested on: Vero E6 infected with SARS-CoV-2
protocol-text: inhibition of SARS-CoV-2 cytopathic effect; higher = more antiviral protection, active = above 15
assay-context: 100 nM; 48 h
assay-metric: inhibition of SARS-CoV-2 cytopathic effect

| compound | study-target | result |
| --- | --- | --- |
| CCOC(=O)C1=C(C)NC(=S)NC1c1cccc(O)c1 (stereo not given) [monastrol] | Vero E6 infected with SARS-CoV-2 | 1.51% (inactive) |
| C[C@]12CC[C@@H]3c4ccc(O)cc4CC[C@H]3[C@@H]1CC[C@@H]2OC(=O)CCC1CCCC1 [estradiol-cypionate] | Vero E6 infected with SARS-CoV-2 | -3.51% (inactive) |
| CCCC[P+](CCCC)(CCCC)Cc1ccc(NC(=O)[C@H](Cc2ccc3ccccc3c2)N/C(=N/C2CCCCC2)NC2CCCCC2)cc1 | Vero E6 infected with SARS-CoV-2 | -4.22% (inactive) |
| C[C@@H]1O[C@@H](O[C@H]2[C@H](Oc3cc(O)c(C(=O)CCc4ccc(O)cc4)c(O)c3)O[C@H](CO)[C@@H](O)[C@@H]2O)[C@H](O)[C@H](O)[C@H]1O [naringin-dihydrochalcone] | Vero E6 infected with SARS-CoV-2 | 0.27% (inactive) |
| COC(=O)CCC(=O)CN [methyl-aminolevulinate] | Vero E6 infected with SARS-CoV-2 | 1.49% (inactive) |
| NC(=O)c1cnccn1 [pyrazinamide] | Vero E6 infected with SARS-CoV-2 | -5.67% (inactive) |
| c1cc2c(cc1C1CCCCC1)c1c3n2CCNC3CCC1 (stereo not given) [tetrindole] | Vero E6 infected with SARS-CoV-2 | -2.86% (inactive) |
| CS(=O)(=O)Nc1ccc(-c2coc3cc(OCc4cccc(C(=O)O)c4)ccc3c2=O)cc1 | Vero E6 infected with SARS-CoV-2 | -1.1% (inactive) |
| COc1ccc(Cl)c(Nc2nc3ccccc3nc2NS(=O)(=O)c2cccc(NC(=O)C(C)(C)N)c2)c1 [pilaralisib] | Vero E6 infected with SARS-CoV-2 | 1.1% (inactive) |
| Cc1cc(NC(=O)Nc2ccc(F)c(F)c2)n(-c2ccccc2)n1 | Vero E6 infected with SARS-CoV-2 | 0.29% (inactive) |
| c1cc(CN2CCCNCCNCCCNCC2)ccc1CN1CCCNCCNCCCNCC1 [plerixafor] | Vero E6 infected with SARS-CoV-2 | 0.88% (inactive) |
| O=c1[nH]c(=O)n([C@H]2C[C@H](O)[C@@H](CO)O2)cc1Br [broxuridine] | Vero E6 infected with SARS-CoV-2 | 1.08% (inactive) |
| NNc1nncc2ccccc12 [hydralazine] | Vero E6 infected with SARS-CoV-2 | -1.28% (inactive) |
| Nc1nc2ccc(OC(F)(F)F)cc2s1 [riluzole] | Vero E6 infected with SARS-CoV-2 | 0.81% (inactive) |
| Oc1cc2c(cc1O)[C@@H]1c3ccc(O)c(O)c3OC[C@]1(O)C2 [hematoxylin] | Vero E6 infected with SARS-CoV-2 | 0.48% (inactive) |
| CC1(C)O[C@@H]2C[C@H]3[C@@H]4CCC5=CC(=O)C=C[C@]5(C)[C@H]4[C@@H](O)C[C@]3(C)[C@]2(C(=O)CO)O1 [desonide] | Vero E6 infected with SARS-CoV-2 | 5.19% (inactive) |
| O=C1c2cccnc2OC[C@@H]2CCCN12 | Vero E6 infected with SARS-CoV-2 | 0.65% (inactive) |
| CNCCn1c(=O)c2cc(OC)c(OC)cc2c2cnc3cc4c(cc3c21)OCO4 | Vero E6 infected with SARS-CoV-2 | -1.27% (inactive) |
| CCCC(C)C1(CC)C(=O)NC(=O)NC1=O (stereo not given) [pentobarbital] | Vero E6 infected with SARS-CoV-2 | 1.92% (inactive) |
| COCCOC(=O)C1=C(C)NC(C)=C(C(=O)OC/C=C/c2ccccc2)C1c1cccc([N+](=O)[O-])c1 (stereo not given) [cilnidipine] | Vero E6 infected with SARS-CoV-2 | 0.89% (inactive) |
| O=C(CC1NCCCC1O)Cn1cnc2cc(Br)c(Cl)cc2c1=O (stereo not given) [halofuginone] | Vero E6 infected with SARS-CoV-2 | -2.82% (inactive) |
| CCCCNc1cc(C(=O)O)cc(S(N)(=O)=O)c1Oc1ccccc1 [bumetanide] | Vero E6 infected with SARS-CoV-2 | 0.69% (inactive) |
| CCCC[N+]1(C)[C@@H]2C[C@@H](OC(=O)[C@H](CO)c3ccccc3)C[C@H]1[C@@H]1O[C@@H]12 (stereo not given in full) [butylscopolamine-bromide] | Vero E6 infected with SARS-CoV-2 | -2.19% (inactive) |
| CC[C@]1(O)C[C@H]2CN(CCc3c([nH]c4ccccc34)[C@@](C(=O)OC)(c3cc4c(cc3OC)N(C=O)[C@H]3[C@@](O)(C(=O)OC)[C@H](OC(C)=O)[C@]5(CC)C=CCN6CC[C@]43[C@@H]65)C2)C1 [Vincristine (sulfate)] | Vero E6 infected with SARS-CoV-2 | 0.94% (inactive) |
| COc1cc(N2CCC(N3CCN(C)CC3)CC2)ccc1Nc1ncc(Cl)c(Nc2ccccc2S(=O)(=O)C(C)C)n1 | Vero E6 infected with SARS-CoV-2 | -0.56% (inactive) |

====

This listing pairs compounds with measured SARS-CoV-2 infection rate.
System: Vero E6 infected with SARS-CoV-2
protocol-text: SARS-CoV-2 infection rate relative to infected DMSO; higher = more infection, active = 60 or less
assay-context: 24 h
assay-metric: SARS-CoV-2 infection rate (%)

| compound | study-target | assay-metric | result-number |
| --- | --- | --- | --- |
| CC(Oc1ccc(O)cc1)(P(=O)(O)O)P(=O)(O)O (10 µM) | Vero E6 infected with SARS-CoV-2 | SARS-CoV-2 infection rate | 107 |
| CCOC(=O)c1ccc(N2NC(=O)/C(=C/c3ccc([N+](=O)[O-])o3)C2=O)cc1 (10 µM) | Vero E6 infected with SARS-CoV-2 | SARS-CoV-2 infection rate | 85 |
| CC(C)(Cc1ccc2ccccc2c1)NC[C@@H](O)COc1cccc(Cl)c1C#N (10 µM) | Vero E6 infected with SARS-CoV-2 | SARS-CoV-2 infection rate | 9.5 |
| C/C=C1\NC(=O)[C@H]2CSSCC/C=C/[C@H](CC(=O)N[C@H](C(C)C)C(=O)N2)OC(=O)[C@H](C(C)C)NC1=O [romidepsin] (10 µM) | Vero E6 infected with SARS-CoV-2 | SARS-CoV-2 infection rate | 114 |
| COc1cc(N2CCOCC2)ccc1Nc1ncc(Cl)c(Nc2ccccc2NS(C)(=O)=O)n1 (10 µM) | Vero E6 infected with SARS-CoV-2 | SARS-CoV-2 infection rate | 103 |
| CC(=O)[C@@]1(O)CC[C@H]2[C@@H]3C[C@H](C)C4=CC(=O)C=C[C@]4(C)[C@@]3(F)[C@@H](O)C[C@@]21C [fluorometholone] (10 µM) | Vero E6 infected with SARS-CoV-2 | SARS-CoV-2 infection rate | 110 |
| CC(O)c1cc(C(=O)N[C@@H](C)Cn2ccc(-c3ccc(C#N)c(Cl)c3)n2)n[nH]1 (stereo partly specified) (10 µM) | Vero E6 infected with SARS-CoV-2 | SARS-CoV-2 infection rate | 106 |
| COc1ccc(CCN(C)CCCN2CCc3cc(OC)c(OC)cc3CC2=O)cc1OC [zatebradine] (10 µM) | Vero E6 infected with SARS-CoV-2 | SARS-CoV-2 infection rate | 112 |
| OCCN(CCO)c1nc(N2CCCCC2)c2nc(N(CCO)CCO)nc(N3CCCCC3)c2n1 [dipyridamole] (10 µM) | Vero E6 infected with SARS-CoV-2 | SARS-CoV-2 infection rate | 90.5 |
| CCCN1CCN(c2ccc(C(=O)NC3(C(=O)NCC#N)CCCCC3)cc2)CC1 [balicatib] (10 µM) | Vero E6 infected with SARS-CoV-2 | SARS-CoV-2 infection rate | 46 |
| CCOC(=O)c1ccc(N)cc1 [benzocaine] (10 µM) | Vero E6 infected with SARS-CoV-2 | SARS-CoV-2 infection rate | 112 |
| CC(C)NC(=O)N1CC[C@H](NC2=Nc3cc(F)ccc3N(CC(F)F)c3ccc(Cl)cc32)C1 (0.833333 µM) | Vero E6 infected with SARS-CoV-2 | SARS-CoV-2 infection rate | 89 |
| O=C(CNC(=O)c1cccc(C(F)(F)F)c1)N[C@@H]1CCN(Cc2ccc(Cl)cc2)C1 [teijin-compound-1] (10 µM) | Vero E6 infected with SARS-CoV-2 | SARS-CoV-2 infection rate | 103 |
| Cc1ccc(NCCCc2ccccc2)c(N)c1 [NFKB-activation-inhibitor-II] (10 µM) | Vero E6 infected with SARS-CoV-2 | SARS-CoV-2 infection rate | 102 |
| CN1[C@@H]2C[C@@H](OC(=O)[C@H](CO)c3ccccc3)C[C@H]1[C@@H]1O[C@@H]12 (10 µM) | Vero E6 infected with SARS-CoV-2 | SARS-CoV-2 infection rate | 97.5 |
| FC(F)(F)c1cccc(-c2noc(-c3cc(-c4ccccc4)c(C(F)(F)F)s3)n2)c1 (10 µM) | Vero E6 infected with SARS-CoV-2 | SARS-CoV-2 infection rate | 114 |
| CN1CCC(c2c[nH]c3ccc(O)cc23)CC1 (10 µM) | Vero E6 infected with SARS-CoV-2 | SARS-CoV-2 infection rate | 101 |
| COC(=O)c1ccc(O)cc1 [methylparaben] (10 µM) | Vero E6 infected with SARS-CoV-2 | SARS-CoV-2 infection rate | 114 |
| CC(=O)NCCc1c[nH]c2ccccc12 [N-acetyltryptamine] (10 µM) | Vero E6 infected with SARS-CoV-2 | SARS-CoV-2 infection rate | 94.5 |
| C=C1CC[C@@H]2[C@](C)(CO)[C@H](O)CC[C@@]2(C)[C@@H]1C/C=C1/C(=O)OC[C@H]1O [andrographolide] (0.833333 µM) | Vero E6 infected with SARS-CoV-2 | SARS-CoV-2 infection rate | 106 |
| CCN(CC)CCOc1ccc2c(c1)C(=O)c1cc(OCCN(CC)CC)ccc1-2 [tilorone] (0.833333 µM) | Vero E6 infected with SARS-CoV-2 | SARS-CoV-2 infection rate | 105 |
| CC(C)[C@H]1CC[C@H](C(=O)N[C@H](Cc2ccccc2)C(=O)O)CC1 [nateglinide] (10 µM) | Vero E6 infected with SARS-CoV-2 | SARS-CoV-2 infection rate | 94.5 |
| N#C[C@@H]1C[C@@H]2C[C@@H]2N1C(=O)[C@@H](N)C12CC3CC(CC(O)(C3)C1)C2 (10 µM) | Vero E6 infected with SARS-CoV-2 | SARS-CoV-2 infection rate | 105 |
| Cc1ccnc2c1NC(=O)c1cccnc1N2C1CC1 [nevirapine] (10 µM) | Vero E6 infected with SARS-CoV-2 | SARS-CoV-2 infection rate | 104 |
| CC1(C)CCC(C)(C)c2cc(C(=O)Nc3ccc(C(=O)O)cc3)ccc21 (10 µM) | Vero E6 infected with SARS-CoV-2 | SARS-CoV-2 infection rate | 112 |
| N[C@H](C(=O)O)c1cc(O)no1 [ibotenic-acid] (10 µM) | Vero E6 infected with SARS-CoV-2 | SARS-CoV-2 infection rate | 93 |
| CNc1cc2[nH]c(=O)n(-c3ccc(NC(=O)NS(=O)(=O)c4ccc(Cl)s4)cc3)c(=O)c2cc1F [elinogrel] (10 µM) | Vero E6 infected with SARS-CoV-2 | SARS-CoV-2 infection rate | 87.5 |
| Cc1cccc(-c2[nH]c(C(C)(C)C)nc2-c2ccc3nccnc3c2)n1 (10 µM) | Vero E6 infected with SARS-CoV-2 | SARS-CoV-2 infection rate | 100 |
| CC(C)(N)CC12CC3CC(CC(C3)C1)C2 [somantadine] (10 µM) | Vero E6 infected with SARS-CoV-2 | SARS-CoV-2 infection rate | 96 |
| COc1ccc(CCN(C)CCc2ccc(OC)c(OC)c2)cc1OC (10 µM) | Vero E6 infected with SARS-CoV-2 | SARS-CoV-2 infection rate | 103 |
| O=C(O)c1ccc(N2N=C(Cc3ccccc3)/C(=C\c3ccc(-c4ccccc4F)o3)C2=O)cc1 (10 µM) | Vero E6 infected with SARS-CoV-2 | SARS-CoV-2 infection rate | 115 |
